System: HOP-62 NSCLC
Assay: NCI tumour cell line growth inhibition, 48 h

- compound: "COc1ccc(N/N=C/C2=CC(C)(C)C(C#N)(C#N)C(O)=C2C#N)cc1"
  TGI: "> 100 µM"
- compound: "CCOC(=O)Nc1ccc2c(c1)C(=O)N(CC)c1ccccc1O2"
  TGI: "> 100 µM"
- compound: "Cc1nn(C(=O)Cc2ccccc2)c2c1C(c1ccc([N+](=O)[O-])cc1)SC(N)=N2 (centres undefined)"
  TGI: "> 100 µM"
- compound: "CC(C)c1cccc(C(C)C)c1NC(=O)C(=O)C1CCC2=C(Sc3ccccc3N2)C1=O (centres undefined)"
  TGI: "> 100 µM"
- compound: "c1ccc(SCCc2ccncc2)cc1"
  TGI: "> 100 µM"
- compound: "CC1=C(SCCO)C(=O)c2ccccc2C1=O"
  TGI: "29.4 µM"
- compound: "CCC[CH2][Sn]1([CH2]CCC)[O]CC[S]1"
  TGI: "3.59 µM"
- compound: "C/C(CC(C)(C)N1CC1)=N\\NC(=O)Nc1cccc2ccccc12"
  TGI: "15.8 µM"
- compound: "O=c1cc(-c2ccccc2)oc2c1ccc1ccccc12"
  TGI: "> 100 µM"
- compound: "O=C(CC1(O)C(=O)Nc2ccc([N+](=O)[O-])cc21)c1ccncc1 (centres undefined)"
  TGI: "> 100 µM"
- compound: "Nc1ncnc2c1ncn2[C@@H]1O[C@H](COP(=O)(O)OP(=O)(O)OC[C@H]2O[C@@H](OCCCO)[C@H](O)[C@@H]2O)[C@@H](O)[C@H]1O"
  TGI: "> 100 µM"
- compound: "CC1SC2=NC3=C(c4ccccc4C3=O)C(c3ccccc3Cl)N2C1=O (centres undefined)"
  TGI: "> 100 µM"
- compound: "CC1(C)N=c2cc3c(cc2N1c1ccc(Cl)cc1)=Nc1ccccc1N3c1ccc(Cl)cc1"
  TGI: "> 100 µM"
- compound: "Cc1c[nH]c(=O)n(Cc2nnc(CCC(=O)c3nc4ccccc4[nH]3)o2)c1=O"
  TGI: "> 100 µM"

----------
# TGI per entry
System: M14 melanoma
Assay: NCI tumour cell line growth inhibition, 48 h

- compound: "Cc1ccc(N=C2OP(=O)(Nc3ccc(C)cc3)Oc3ccccc32)cc1 (stereo unspecified)"
  target_entity: "M14 melanoma"
  TGI: "> 100 µM"
- compound: "O=[N+]([O-])c1ccc(N=Nc2c(Cl)cc(O)cc2Cl)cc1"
  target_entity: "M14 melanoma"
  TGI: "4.86 µM"
- compound: "CN(/N=C/c1ccccc1O)c1ccc2ccccc2n1"
  target_entity: "M14 melanoma"
  TGI: "> 100 µM"
- compound: "Nc1ncnc2c1ncn2[C@@H]1O[C@H](COP(=O)(O)OP(=O)(O)OC[C@H]2O[C@@H](OCCCO)[C@H](O)[C@@H]2O)[C@@H](O)[C@H]1O"
  target_entity: "M14 melanoma"
  TGI: "> 100 µM"
- compound: "[Co].[O-]c1cccnc1C=Nc1ccccc1.[OH3+]"
  target_entity: "M14 melanoma"
  TGI: "> 100 µM"
- compound: "CN(CCNC(=O)c1nn(-c2ccc(Cl)cc2Cl)c2c1Cc1ccccc1-2)CCNC(=O)c1nn(-c2ccc(Cl)cc2Cl)c2c1Cc1ccccc1-2"
  target_entity: "M14 melanoma"
  TGI: "3.46 µM"
- compound: "COCN1C(=N)C(C(=O)OC(C)(C)C)=C2C=C(O)C=CC21C (stereo unspecified)"
  target_entity: "M14 melanoma"
  TGI: "29.5 µM"
- compound: "N#CC(C(=O)CCC(=O)Nc1cccc(C(F)(F)F)c1)c1ccccc1 (stereo unspecified)"
  target_entity: "M14 melanoma"
  TGI: "> 100 µM"
- compound: "COc1cc2c(c(OC)c1OC)-c1c(c3ccc([N+](=O)[O-])cc3c(=O)n1CCCBr)C2=O"
  target_entity: "M14 melanoma"
  TGI: "59.1 µM"
- compound: "C#CC(C)(C)OCCCCOc1cc(O)c2c(=O)c3ccccc3n(C)c2c1"
  target_entity: "M14 melanoma"
  TGI: "> 100 µM"
- compound: "CC1=C(SCCO)C(=O)c2ccccc2C1=O"
  target_entity: "M14 melanoma"
  TGI: "27.6 µM"
- compound: "CC(C)=Cc1cccc2[nH]c(O)c(N=Nc3ccc(S(N)(=O)=O)cc3)c12"
  target_entity: "M14 melanoma"
  TGI: "> 25 µM"
- compound: "S=C1SCN(Cc2ccccc2)CN1Cc1ccccc1"
  target_entity: "M14 melanoma"
  TGI: "27.8 µM"
- compound: "CCCCCCCC(=O)OC[C@H](C[As](=O)(O)O)OC(=O)CCCCCCC"
  target_entity: "M14 melanoma"
  TGI: "25.6 µM"
- compound: "O=C(CCCC(=O)N/N=C/c1cc(Cl)ccc1O)N/N=C\\c1cc(Cl)ccc1O"
  target_entity: "M14 melanoma"
  TGI: "> 100 µM"
- compound: "Cc1cc(=O)oc2cc3oc(N(C)c4ccccc4)nc(=O)c3cc12"
  target_entity: "M14 melanoma"
  TGI: "> 100 µM"
- compound: "COc1ccc(C(=O)c2nc3ccccc3nc2N2CCN(c3ccccc3)CC2)cc1OC"
  target_entity: "M14 melanoma"
  TGI: "> 100 µM"
- compound: "CCOC(=O)[C@@]1(C(C)=O)CC(C)=C(C)C[S@]1=O"
  target_entity: "M14 melanoma"
  TGI: "> 100 µM"
- compound: "CN[C@@H](Cc1cccc2ccccc12)C(=O)N[C@@H](CC(C)C)B(O)O"
  target_entity: "M14 melanoma"
  TGI: "0.145 µM"
- compound: "OCCN(CCO)c1nc(N2CCCCC2)c2nc(N(CCO)CCO)nc(N3CCCCC3)c2n1"
  target_entity: "M14 melanoma"
  TGI: "> 100 µM"
- compound: "O=c1cc(-c2ccccc2)oc2c1ccc1ccccc12"
  target_entity: "M14 melanoma"
  TGI: "> 100 µM"

----------
This listing pairs compounds with measured TGI.
Test system: SN12C renal
Assay: NCI tumour cell line growth inhibition, 48 h
measure: TGI

- compound: "CC[C@]12C=CCN3CC[C@@]4(c5ccc(OC)cc5N(C)[C@H]4[C@@](O)(C(=O)OC)[C@@H]1OC(=O)CCC(=O)O[C@H]1CC[C@H]4[C@@H]5CC[C@H]6CC(=O)CC[C@]6(C)[C@H]5CC[C@]14C)[C@@H]32"
  target_entity: "SN12C renal"
  test_result: "36.2 µM"
- compound: "O=C(c1ccccc1)C1OC1C(=O)c1ccccc1 (centres undefined)"
  target_entity: "SN12C renal"
  test_result: "63.4 µM"
- compound: "CC[C@]1(Cc2ccc(OC)c(OC)c2)C2CC(C(=O)OC)ON2O[C@H](OCc2ccccc2)[C@@H]1OC(C)=O (some centres undefined)"
  target_entity: "SN12C renal"
  test_result: "> 100 µM"
- compound: "CC(C)(C)OC(=O)N1CC(C)(C)N2C(=O)C3(CCCO3)C12 (centres undefined)"
  target_entity: "SN12C renal"
  test_result: "> 100 µM"
- compound: "COC(=O)C1=C(C(=O)ON)[C@@H]2C=C[C@@]1([C@@H](Cc1ccccc1)Nc1ccccc1)O2"
  target_entity: "SN12C renal"
  test_result: "3.69 µM"
- compound: "Cc1nn(C(=O)Cc2ccccc2)c2c1C(c1ccc([N+](=O)[O-])cc1)SC(N)=N2 (centres undefined)"
  target_entity: "SN12C renal"
  test_result: "> 100 µM"
- compound: "CC(C)CNCCc1ccccn1"
  target_entity: "SN12C renal"
  test_result: "> 100 µM"
- compound: "OCCN(CCO)c1nc(N2CCCCC2)c2nc(N(CCO)CCO)nc(N3CCCCC3)c2n1"
  target_entity: "SN12C renal"
  test_result: "> 100 µM"
- compound: "CC(ON1[C@](C)(c2ccccc2)CC[C@@]1(C)c1ccccc1)c1ccccc1 (some centres undefined)"
  target_entity: "SN12C renal"
  test_result: "> 100 µM"

----------
Consider the following molecules and their measured GI50 readings.
System: T-47D breast
Assay: NCI tumour cell line growth inhibition, 48 h
measure: GI50

- molecule: "CCN(CC)CCn1c(=O)c2cc(OC)c(OC)cc2c2ccc3cc4c(cc3c21)OCO4"
  test_result: "260 nM"
- molecule: "O=[N+]([O-])c1ccc(N=Nc2c(Cl)cc(O)cc2Cl)cc1"
  test_result: "657 nM"
- molecule: "COc1ccc(C2CC(c3ccc(OC)cc3O)=NN2c2ccc(S(N)(=O)=O)cc2)cc1 (centres undefined)"
  test_result: "4420 nM"
- molecule: "C/C(CC(C)(C)N1CC1)=N\\NC(=O)Nc1cccc2ccccc12"
  test_result: "4350 nM"
- molecule: "O=C(c1ccc2ccccc2c1)c1c(C(F)(F)F)n([O-])c2cc(C(F)(F)F)ccc2[n+]1=O"
  test_result: "1310 nM"
- molecule: "COc1ccc(C2=NN(C(C)=O)C(c3ccc(Oc4ccnc5cc(Cl)ccc45)c(OC)c3)C2)cc1 (centres undefined)"
  test_result: "5540 nM"
- molecule: "CC[C@]12C=CCN3CC[C@@]4(c5ccc(OC)cc5N(C)[C@H]4[C@@](O)(C(=O)OC)[C@@H]1OC(=O)CCC(=O)O[C@H]1CC[C@H]4[C@@H]5CC[C@H]6CC(=O)CC[C@]6(C)[C@H]5CC[C@]14C)[C@@H]32"
  test_result: "2100 nM"
- molecule: "COc1ccc2nc3c(cc2c1)C(=O)CC(c1ccccc1)C3 (centres undefined)"
  test_result: "5340 nM"
- molecule: "Cc1c[nH]c(=O)n(Cc2nnc(CCC(=O)c3nc4ccccc4[nH]3)o2)c1=O"
  test_result: "1030 nM"
